Reference source for all entries: patent US11207312B2

test system: P. aeruginosa MB9798 (efflux+, IMP-1 plasmid); settings: efflux + (MB9798) strain; imipenem at 2 μg/mL; in the presence of a class A, C, D serine β-lactamase inhibitor closely related to relebactam
MEASURED_PARAMETER: MB9798 MITC95 P. aeruginosa uM Efflux WT (µM)
Form entry: value (µM) — number only.

Please review the entries below; each comes with its answer.
>  <COMPOUND>
NCCC1CCN(c2ccc(S(=O)(=O)N[C@@H](CN)CO)c(S(N)(=O)=O)c2-c2nn[nH]n2)CC1

>  <STUDY_SYSTEM>
P. aeruginosa MB9798 (efflux+, IMP-1 plasmid)

>  <TEST_VALUE>
0.39

$$$$
>  <COMPOUND>
NCC1CCN(c2ccc(S(=O)(=O)N[C@@H]3CCNC3)c(S(N)(=O)=O)c2-c2nn[nH]n2)C(=O)C1 (some centres unmarked)

>  <STUDY_SYSTEM>
P. aeruginosa MB9798 (efflux+, IMP-1 plasmid)

>  <TEST_VALUE>
6.25

$$$$
>  <COMPOUND>
NS(=O)(=O)c1c(S(=O)(=O)N[C@@H]2CCNC2)ccc(N2CCNCC2)c1-c1nnn[nH]1

>  <STUDY_SYSTEM>
P. aeruginosa MB9798 (efflux+, IMP-1 plasmid)

>  <TEST_VALUE>
3.13

$$$$
>  <COMPOUND>
NCC1=CCN(c2ccc(S(=O)(=O)NC[C@H](O)CN)c(S(N)(=O)=O)c2-c2nn[nH]n2)C1.O=C(O)C(F)(F)F.O=C(O)C(F)(F)F

>  <STUDY_SYSTEM>
P. aeruginosa MB9798 (efflux+, IMP-1 plasmid)

>  <TEST_VALUE>
6.25

$$$$
>  <COMPOUND>
N[C@@H]1CCN(c2ccc(S(=O)(=O)N[C@@H]3CCNC3)c(S(N)(=O)=O)c2-c2nn[nH]n2)C[C@@H]1F

>  <STUDY_SYSTEM>
P. aeruginosa MB9798 (efflux+, IMP-1 plasmid)

>  <TEST_VALUE>
0.78

$$$$

Q: Consider the compound NC[C@@H](O)CNS(=O)(=O)c1ccc(N2CCC(c3c[nH]cn3)CC2)c(-c2nnn[nH]2)c1S(N)(=O)=O tested on P. aeruginosa MB9798 (efflux+, IMP-1 plasmid); state its MB9798 MITC95 P. aeruginosa uM Efflux WT.
A: 0.78

---

system: P. aeruginosa MB9798 (efflux+, IMP-1 plasmid); details: efflux + (MB9798) strain; imipenem at 2 μg/mL; in the presence of a class A, C, D serine β-lactamase inhibitor closely related to relebactam
MEASURED_PARAMETER: MB9798 MITC95 P. aeruginosa uM Efflux WT
Answer as a quantity: numeral, then unit.

Please review the entries below; each comes with its answer.
>  <COMPOUND>
NS(=O)(=O)c1c(S(=O)(=O)N[C@@H]2CCNC2)ccc(N2CCOC(CO)C2)c1-c1nnn[nH]1 (stereo partly drawn)

>  <MB9798 MITC95 P. aeruginosa uM Efflux WT>
3.13 µM

$$$$
>  <COMPOUND>
NCCNS(=O)(=O)c1ccc(N2CCC(O)(CN)CC2)c(-c2nn[nH]n2)c1S(N)(=O)=O

>  <MB9798 MITC95 P. aeruginosa uM Efflux WT>
1.56 µM

$$$$
>  <COMPOUND>
NC[C@@H](O)CNS(=O)(=O)c1ccc(N2CCC3(CCNC3)C2)c(-c2nn[nH]n2)c1S(N)(=O)=O (stereo partly drawn)

>  <MB9798 MITC95 P. aeruginosa uM Efflux WT>
3.13 µM

$$$$
>  <COMPOUND>
NS(=O)(=O)c1c(S(=O)(=O)N[C@@H]2CCNC2)ccc(N2CCC(C(F)F)CC2)c1-c1nnn[nH]1

>  <MB9798 MITC95 P. aeruginosa uM Efflux WT>
6.25 µM

$$$$
>  <COMPOUND>
NCC=C1CCN(c2ccc(S(=O)(=O)NC[C@H](O)CN)c(S(N)(=O)=O)c2-c2nn[nH]n2)CC1

>  <MB9798 MITC95 P. aeruginosa uM Efflux WT>
0.78 µM

$$$$

# ---- query compound ----
Q: // Input: NS(=O)(=O)c1c(S(=O)(=O)N[C@@H]2CCNC2)ccc(N2CCC(O)CC2)c1-c1nnn[nH]1 . Output its MB9798 MITC95 P. aeruginosa uM Efflux WT only.
A: 1.56 µM
